- Experimental Target: Receptor tyrosine-protein kinase erbB-2 (Homo sapiens)
- Test Method Notes: Inhibition of Erbb2 using poly(Glu,Tyr)4:1 as substrate and [gamma33P]ATP at 1 uM after 60 mins by scintillation counting
Parameter Measured: inhibition (%)
A number alone suffices; assume %.

The examples below pair each entry with its known result.
Smiles Representation	Observed Value
COc1cnc2[nH]c(C(=O)c3cc4c(Nc5cccc(I)c5)ncnc4[nH]3)cc2c1	20
O=C(c1cc2ccccc2[nH]1)c1cc2c(Nc3ccc(F)cc3)ncnc2s1	50
O=C(c1cc2ccccc2[nH]1)c1cc2c(Nc3ccc(Br)cc3F)ncnc2s1	51
O=C(c1cc2cc(O)ccc2[nH]1)c1cc2c(Nc3ccc(F)c(Cl)c3)ncnc2s1	87

O=C(c1cc2cc(O)ccc2[nH]1)c1cc2cncnc2[nH]1 has a reported inhibition of 0

O=C(c1cc2ccccc2[nH]1)c1cc2c(Nc3ccc(OCc4cccc(F)c4)cc3Cl)ncnc2[nH]1 has a reported inhibition of 13
